Test system: IGROV1 ovarian
procedure_summary: NCI-60 one-dose screen, 48 h
stated_conditions: 10 µM unless noted
Compounds without any hit were thinned out: in the full panel of roughly 83,000, 20% have a hit. Active and inactive are the calls of the source. The calls were made as follows: active = growth percent below 10; inactive = the rest.
Outcome codes: active, inactive

{"compound": "CC/C=C\\C[C@H](O)C/C=C1/C(=O)C=C[C@@H]1C/C=C\\CCCC(=O)OC", "class_label": "active"}
{"compound": "Cc1cc(NCCCCNc2ccnc3cc(Cl)ccc23)nc(Nc2ccc(C(=O)N3CCCC3)cc2)n1", "class_label": "inactive"}
{"compound": "COc1ccc(C(=NN=C(N)N)c2ccc(OC)cc2)cc1", "class_label": "inactive"}
{"compound": "CCCCCCCCCCCCCCCCCCOc1ccccc1CC(=O)OCCC[N+](C)(C)C", "class_label": "active"}
{"compound": "COc1ccc(N2CCN(c3nc(-c4cc(OC)c(OC)c(OC)c4)nc4ccccc34)CC2)cc1", "class_label": "inactive"}
{"compound": "CC/C=C/C/C=C/C/C=C/C/C=C/C/C=C/C/C=C/CCC(=O)Nc1ccn([C@@H]2O[C@H](CO)[C@@H](O)C2(F)F)c(=O)n1", "class_label": "inactive"}
{"compound": "CC(=O)OC1CCC2(C)C(=CC3C4CCC(=O)C4(C)CCC32)C1 (centres undefined)", "class_label": "inactive"}
{"compound": "N=C1C(c2nc(-c3ccc(Br)cc3)cs2)=C(O)CN1CC1CCCO1 (centres undefined)", "class_label": "inactive"}
{"compound": "COC(=O)/C=C1\\S/C(=N\\NS(=O)(=O)c2ccc(C)cc2)N(c2ccccc2)C1=O", "class_label": "inactive"}
{"compound": "CN(C)c1ccc(/C=C/C(=O)c2cccc(Nc3nc(Nc4ccccc4)nc(Nc4ccccc4)n3)c2)cc1", "class_label": "inactive"}
{"compound": "COc1ccc2c(c1)CCCN2c1c2ccccc2nc2ccccc12", "class_label": "inactive"}
{"compound": "OC(c1cccc(-n2ccc(C(F)(F)F)n2)c1)c1cnccc1NC1CCCCCC1 (centres undefined)", "class_label": "inactive"}
{"compound": "CC1=CN2C(=O)C3C4=C(CCCC4)SC3N=C2CN1c1c(C)cccc1C (centres undefined)", "class_label": "inactive"}
{"compound": "COc1cc(C2CC(=O)Nc3c2c(C)nn3-c2nc3ccccc3[nH]2)c(OC)c2c1OCO2 (centres undefined)", "class_label": "inactive"}
{"compound": "O=c1c2cc(F)ccc2sc2c(Nc3cccnc3)nc3ccccc3c12", "class_label": "inactive"}
{"compound": "COC(=O)[C@]12CC[C@@H](C)[C@H](C)[C@@H]1C1=CC[C@@H]3[C@@]4(C)C(C=O)=C[C@@](C)(CO)[C@@H]4[C@H](O)C[C@@]3(C)[C@]1(C)CC2", "class_label": "active"}
{"compound": "CCOc1ccccc1-n1c(CN2CCN(C(=O)COc3ccc(CNCCCCCCN4C5CCCC4CC(OC(=O)Nc4cc(C)ccc4OC)C5)cc3)CC2)nc2ccccc2c1=O (centres undefined)", "class_label": "active"}
{"compound": "COc1ccc2occ(C3=C(c4c[nH]c5ccccc45)C(=O)N(O)C3=O)c2c1", "class_label": "inactive"}
{"compound": "c1c[nH]c(CNC2CCCCC2)c1", "class_label": "inactive"}

Taken from PubChem BioAssay (NCI).
